src = patent US20200102347A1

# studyTarget: T1, RPtag(small) Nd2, Cd4 (Thermoanaerobacter tengcongensis)
# T1 peptide: RhodamineB-KIPNFIPAELKLITK
# testDescription: fluorescence anisotropy; 2 nM rhodamine Nd2Cd4, unlabeled RPtag large variant titrated; bar of Ka = 1/Kd, right axis
No end group written: not given here. *: point of attachment. RhodamineB = CCN(CC)c1ccc2c(-c3ccccc3C(=O)*)c3ccc(=[N+](CC)CC)cc-3oc2c1

binder | binding result
h122a (designed binder, also called RPtag(large) H122A) single chain: MGSSCHHHHHHSQDPNSSSMKEGKTIGLVISTLNNPFFVTLKNGAEEKAKELGYKIIVEDSQNDSSKELSNVEDLIQQKVDVLLINPVDSDAVVTAIKEANSKNIPVITIDRSANGGDVVSAIASDNVKGGEMAAEFIAKALKGKGNVVELEGIPGASAARDRGKGFDEAIAKYPDIKIVAKQAADFDRSKGLSVMENILQAQPKIDAVFAQNDEMALGAIKAIEAANRQGIIVVGFDGTEDALKAIKEGKMAATIAQQPALMGSLGVEMADKYLK | binds
